Source: patent US7041785B1

# test_system: B1 receptor (Oryctolagus cuniculus, UniProt P48748)
# Sequence (P48748 whole entry): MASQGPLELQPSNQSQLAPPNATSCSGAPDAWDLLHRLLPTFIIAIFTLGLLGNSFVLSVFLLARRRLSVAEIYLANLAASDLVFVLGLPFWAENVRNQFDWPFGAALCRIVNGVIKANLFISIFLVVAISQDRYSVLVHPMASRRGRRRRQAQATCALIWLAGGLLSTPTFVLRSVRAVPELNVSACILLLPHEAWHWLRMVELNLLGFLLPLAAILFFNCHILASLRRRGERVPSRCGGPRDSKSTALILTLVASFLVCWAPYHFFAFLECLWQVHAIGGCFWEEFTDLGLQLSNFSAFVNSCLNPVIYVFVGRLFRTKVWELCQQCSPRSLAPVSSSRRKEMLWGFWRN
# assay_details: cell-based
# details: Rb.A. pA2, apparent affinity as antagonist vs desArg9BK; antagonist applied 10 min before; Inactive = no detectable antagonistic effect at ≦ 10 μg/ml
Non-standard residues stand in square brackets, D forms with d. Residues, ends and D or L forms follow the SMILES beside them. Oic = O=C(O)[C@@H]1C[C@@H]2CCCC[C@@H]2N1; Hyp = O=C(O)[C@@H]1C[C@@H](O)CN1; dTic = O=C(O)[C@H]1Cc2ccccc2CN1; 2Thi = N[C@@H](Cc1cccs1)C(=O)O
# note: boundary value 500 nM maps to -1; Kb below it maps to 1

Look over these answered cases.
[
  {
    "compound": "CC(=O)N[C@@H](CCCCN)C(=O)N[C@@H](CCCNC(=N)N)C(=O)N1CCC[C@H]1C(=O)N1C[C@H](O)C[C@H]1C(=O)NCC(=O)N[C@@H](Cc1ccccc1)C(=O)N[C@@H](CO)C(=O)N1CCC[C@H]1C(=O)N[C@@H](CC(C)C)C(=O)O",
    "category_label": 1
  },
  {
    "compound": "N=C(N)NCCC[C@H](N)C(=O)N1CCC[C@H]1C(=O)N1C[C@H](O)C[C@H]1C(=O)NCC(=O)N[C@@H](Cc1cccs1)C(=O)N[C@@H](CO)C(=O)N1Cc2ccccc2C[C@@H]1C(=O)N1[C@H](C(=O)O)C[C@@H]2CCCC[C@@H]21 [Compound 32, (Hyp^3, Thi^5, D-Tic^7, Oic^8)desArg^9BK, reference compound] (H-RP[Hyp]G[2Thi]S[dTic][Oic]-OH; N-terminus and C-terminus assumed)",
    "category_label": 1
  }
]

Let's switch to this compound now.
hey, is Kb for N=C(N)NCCC[C@@H](N)C(=O)N[C@@H](CCCNC(=N)N)C(=O)N1CCC[C@H]1C(=O)N1C[C@H](O)C[C@H]1C(=O)NCC(=O)N[C@@H](Cc1ccccc1)C(=O)N[C@@H](CO)C(=O)N1Cc2ccccc2C[C@@H]1C(=O)N[C@@H](Cc1ccccc1)C(=O)O [Compound 16, D-Arg(Hyp^3, D-Tic^7)desArg^9BK] (H-[dR]RP[Hyp]GFS[dTic]F-OH; N-terminus and C-terminus assumed) lower than 500 nM or not?
1

---

# test_system: angiotensin-converting enzyme (ACE) from rabbit lungs (Oryctolagus cuniculus, UniProt P12822)
# Sequence (P12822 34-1310): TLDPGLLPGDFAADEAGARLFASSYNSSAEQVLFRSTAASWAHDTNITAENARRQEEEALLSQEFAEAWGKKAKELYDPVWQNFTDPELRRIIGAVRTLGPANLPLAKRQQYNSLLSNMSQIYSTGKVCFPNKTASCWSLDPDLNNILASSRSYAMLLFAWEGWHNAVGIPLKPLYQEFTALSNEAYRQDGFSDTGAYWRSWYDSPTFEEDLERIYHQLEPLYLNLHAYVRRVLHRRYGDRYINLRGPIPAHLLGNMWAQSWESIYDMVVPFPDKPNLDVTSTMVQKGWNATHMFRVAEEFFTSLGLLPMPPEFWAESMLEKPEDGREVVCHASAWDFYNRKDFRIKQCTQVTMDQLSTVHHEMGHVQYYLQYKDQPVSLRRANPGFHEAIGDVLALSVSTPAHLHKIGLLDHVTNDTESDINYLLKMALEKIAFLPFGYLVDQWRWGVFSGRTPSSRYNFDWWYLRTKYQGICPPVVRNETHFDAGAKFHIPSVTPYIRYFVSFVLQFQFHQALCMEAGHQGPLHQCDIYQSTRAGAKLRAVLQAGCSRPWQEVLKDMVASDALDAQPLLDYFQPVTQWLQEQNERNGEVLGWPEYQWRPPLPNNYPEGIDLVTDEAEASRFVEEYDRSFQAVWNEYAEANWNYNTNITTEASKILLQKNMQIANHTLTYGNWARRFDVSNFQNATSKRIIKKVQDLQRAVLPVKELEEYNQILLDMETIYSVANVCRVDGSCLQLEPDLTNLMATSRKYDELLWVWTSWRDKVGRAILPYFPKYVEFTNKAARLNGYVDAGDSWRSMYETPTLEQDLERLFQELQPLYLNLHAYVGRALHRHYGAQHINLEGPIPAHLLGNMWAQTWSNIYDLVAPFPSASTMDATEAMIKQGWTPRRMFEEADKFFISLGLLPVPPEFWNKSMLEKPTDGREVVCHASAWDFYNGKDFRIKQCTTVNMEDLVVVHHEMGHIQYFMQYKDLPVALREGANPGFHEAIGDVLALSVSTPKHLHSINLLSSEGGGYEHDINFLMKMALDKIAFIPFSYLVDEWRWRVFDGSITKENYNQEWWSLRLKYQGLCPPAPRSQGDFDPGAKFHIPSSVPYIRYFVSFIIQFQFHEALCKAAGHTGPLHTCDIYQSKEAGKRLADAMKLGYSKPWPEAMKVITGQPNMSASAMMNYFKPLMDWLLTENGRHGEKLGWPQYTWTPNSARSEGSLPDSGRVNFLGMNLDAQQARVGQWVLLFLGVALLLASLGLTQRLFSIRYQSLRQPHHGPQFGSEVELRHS
# assay_details: Metabolic degradation by purified angiotensin-converting enzyme, HPLC analysis
# Type: in vitro ADME
# Design: purified angiotensin-converting enzyme (ACE) from rabbit lungs; purchased Sigma, St-Louis, Mo; host or cells: purified from rabbit lungs
Non-standard residues stand in square brackets, D forms with d. Residues, ends and D or L forms follow the SMILES beside them. d2Nal = N[C@H](Cc1ccc2ccccc2c1)C(=O)O; dTic = O=C(O)[C@H]1Cc2ccccc2CN1; Sar = CNCC(=O)O
Quick reference: Less susceptible to ACE proteolytic degradation, relative to Lys(Leu8)desArgBK of the listed items.

Please review the entries below; each comes with its answer.
[
  {
    "molecule": "CC(C)C[C@H](NC(=O)[C@H]1Cc2ccccc2CN1C(=O)[C@H](CO)NC(=O)[C@H](Cc1ccccc1)NC(=O)CNC(=O)[C@@H]1CCCN1C(=O)[C@@H]1CCCN1C(=O)[C@H](CCCNC(=N)N)NC(=O)[C@H](N)CCCNC(=N)N)C(=O)O [Compound 12, D-Arg(D-Tic^7, Leu^8)desArg^9BK] (H-[dR]RPPGFS[dTic]L-OH; N-terminus and C-terminus assumed)",
    "observed": "2-5 times"
  },
  {
    "molecule": "CC(C)C[C@H](NC(=O)[C@H]1Cc2ccccc2CN1C(=O)[C@H](CO)NC(=O)[C@H](Cc1ccccc1)NC(=O)CNC(=O)[C@@H]1CCCN1C(=O)[C@@H]1CCCN1C(=O)[C@@H](N)CCCNC(=N)N)C(=O)O [Compound 8, (D-Tic^7, Leu^8)desArg^9BK] (H-RPPGFS[dTic]L-OH; N-terminus and C-terminus assumed)",
    "observed": "2-5 times"
  }
]

Data point: CC[C@H](C)[C@H](NC(=O)[C@@H](Cc1ccc2ccccc2c1)NC(=O)[C@H](CO)NC(=O)[C@H](Cc1ccccc1)NC(=O)CNC(=O)[C@@H]1CCCN1C(=O)[C@@H]1CCCN1C(=O)[C@H](CCCNC(=N)N)NC(=O)CNC)C(=O)O [Compound 26, Sar(D-βNal^7, Ile^8)desArg^9BK] (H-[Sar]RPPGFS[d2Nal]I-OH; N-terminus and C-terminus assumed) ; Less susceptible to ACE proteolytic degradation, relative to Lys(Leu8)desArgBK = 2-5 times

---

# System: angiotensin-converting enzyme (ACE)
# Construct: purified angiotensin-converting enzyme (ACE) from rabbit lungs; purchased Sigma, St-Louis, Mo; host or cells: purified from rabbit lungs
# assay_details: Metabolic degradation by purified angiotensin-converting enzyme, HPLC analysis
# Format: in vitro ADME, rabbit
# details: rabbit, isolated enzyme ace, pH 7.5
Non-standard residues stand in square brackets, D forms with d. Residues, ends and D or L forms follow the SMILES beside them. d2Nal = N[C@H](Cc1ccc2ccccc2c1)C(=O)O
Quick reference: metabolised at 0.5 h, 42.1 μmol/L of the listed items.
Give the value, in units of %, as a plain number.

Please review the entries below; each comes with its answer.
[
  {
    "compound": "CC[C@H](C)[C@H](NC(=O)[C@@H](Cc1ccc2ccccc2c1)NC(=O)[C@H](CO)NC(=O)[C@H](Cc1ccccc1)NC(=O)CNC(=O)[C@@H]1CCCN1C(=O)[C@@H]1CCCN1C(=O)[C@H](CCCN=C(N)N)NC(=O)[C@H](CCCCN)NC(C)=O)C(=O)O [Compound 19, AcLys(D-βNal^7, Ile^8)desArg^9BK] (Ac-KRPPGFS[d2Nal]I-OH)",
    "observed": 34
  },
  {
    "compound": "CC(=O)N[C@@H](CCCCN)C(=O)N[C@@H](CCCNC(=N)N)C(=O)N1CCC[C@H]1C(=O)N1C[C@H](O)C[C@H]1C(=O)NCC(=O)N[C@@H](Cc1ccccc1)C(=O)N[C@@H](CO)C(=O)N1CCC[C@H]1C(=O)N[C@@H](CC(C)C)C(=O)O",
    "observed": 66
  }
]

Would you kindly look at the next entry?
Data point: CC[C@H](C)[C@H](NC(=O)[C@@H](Cc1ccc2ccccc2c1)NC(=O)[C@H](CO)NC(=O)[C@H](Cc1ccccc1)NC(=O)CNC(=O)[C@@H]1CCCN1C(=O)[C@@H]1CCCN1C(=O)[C@H](CCCNC(=N)N)NC(=O)[C@H](N)CCCNC(=N)N)C(=O)O [Compound 23, D-Arg(D-βNal^7, Ile^8)desArg^9BK] (H-[dR]RPPGFS[d2Nal]I-OH; N-terminus and C-terminus assumed) ; metabolised at 0.5 h, 42.1 μmol/L = 8

---

# test_system: human B2 receptor (Homo sapiens)
# Construct: Helical strips of HUV were prepared according to Gobeil et al; from tissue; host or cells: human umbilical vein helical strips
# Sequence (P30411 1-391): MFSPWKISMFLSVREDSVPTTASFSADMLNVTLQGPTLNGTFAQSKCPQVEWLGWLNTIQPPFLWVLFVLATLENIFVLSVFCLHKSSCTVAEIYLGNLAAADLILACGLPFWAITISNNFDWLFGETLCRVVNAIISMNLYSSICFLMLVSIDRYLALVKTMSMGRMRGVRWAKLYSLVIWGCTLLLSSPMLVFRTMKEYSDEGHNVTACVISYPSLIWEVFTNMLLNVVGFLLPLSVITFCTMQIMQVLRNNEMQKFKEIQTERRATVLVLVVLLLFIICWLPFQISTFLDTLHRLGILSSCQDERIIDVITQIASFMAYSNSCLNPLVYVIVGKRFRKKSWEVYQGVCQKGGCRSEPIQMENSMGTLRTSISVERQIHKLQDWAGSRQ
# assay_details: Human umbilical vein bioassay in presence of Lys(Leu8)desArg9BK, B2 receptor
# Format: cell-based
# details: vs BK, Lys(Leu8)desArg9BK 1 μmol/L present
# Protocol: Tissues were taken from New Zealand white rabbits (1.5–2.5 kg) and Dunken Hartley guinea pigs (250–350 g) of either sex, killed by stunning and exsanguination. […] Changes of tension produced by the various agents were measured with Grass isometric transducers (model FT 03C, Grass Instrument Co., Quincy, Mass.). […] Before testing the drugs, the tissues were allowed to equilibrate for 60–120 min during which time the tissues were repeatedly washed and the tension readjusted every 15 min. […]
Non-standard residues stand in square brackets, D forms with d. Residues, ends and D or L forms follow the SMILES beside them. Oic = O=C(O)[C@@H]1C[C@@H]2CCCC[C@@H]2N1; d2Nal = N[C@H](Cc1ccc2ccccc2c1)C(=O)O; Hyp = O=C(O)[C@@H]1C[C@@H](O)CN1; dTic = O=C(O)[C@H]1Cc2ccccc2CN1; 2Thi = N[C@@H](Cc1cccs1)C(=O)O; Ahx = NCCCCCC(=O)O; Sar = CNCC(=O)O
readout_type: Human umbilical vein B2 receptor pA2

Please review the entries below; each comes with its answer.
[
  {
    "compound": "CC[C@H](C)[C@H](NC(=O)[C@H]1Cc2ccccc2CN1C(=O)[C@H](CO)NC(=O)[C@H](Cc1ccccc1)NC(=O)CNC(=O)[C@@H]1CCCN1C(=O)[C@@H]1CCCN1C(=O)[C@H](CCCNC(=N)N)NC(=O)[C@H](N)CCCNC(=N)N)C(=O)O [Compound 13, D-Arg(D-Tic^7, Ile^8)desArg^9BK] (H-[dR]RPPGFS[dTic]I-OH; N-terminus and C-terminus assumed)",
    "readout_type": "Human umbilical vein B2 receptor pA2",
    "observed": "Inactive"
  },
  {
    "compound": "CC(=O)N[C@@H](CCCCN)C(=O)N[C@@H](CCCNC(=N)N)C(=O)N1CCC[C@H]1C(=O)N1CCC[C@H]1C(=O)NCC(=O)N[C@@H](Cc1ccccc1)C(=O)N[C@@H](CO)C(=O)N[C@H](Cc1ccc2ccccc2c1)C(=O)N[C@@H](CC(C)C)C(=O)O [Compound 18, AcLys(D-βNal^7, Leu^8)desArg^9BK] (Ac-KRPPGFS[d2Nal]L-OH; C-terminus assumed)",
    "readout_type": "Human umbilical vein B2 receptor pA2",
    "observed": "Inactive"
  },
  {
    "compound": "CC[C@H](C)[C@H](NC(=O)[C@@H](Cc1ccc2ccccc2c1)NC(=O)[C@H](CO)NC(=O)[C@H](Cc1ccccc1)NC(=O)CNC(=O)[C@@H]1CCCN1C(=O)[C@@H]1CCCN1C(=O)[C@H](CCCNC(=N)N)NC(=O)[C@H](CCCCN)NC(=O)CCCCCNC(=O)[C@H](Cc1ccc(O)cc1)NC(=O)CNC)C(=O)O [Compound 29, SarTyrεAhxLys(D-βNal^7, Ile^8)desArg^9BK] (H-[Sar]Y[Ahx]KRPPGFS[d2Nal]I-OH; N-terminus and C-terminus assumed)",
    "readout_type": "Human umbilical vein B2 receptor pA2",
    "observed": "Inactive"
  },
  {
    "compound": "CC(C)C[C@H](NC(=O)[C@H]1Cc2ccccc2CN1C(=O)[C@H](CO)NC(=O)[C@H](Cc1ccccc1)NC(=O)CNC(=O)[C@@H]1CCCN1C(=O)[C@@H]1CCCN1C(=O)[C@@H](N)CCCNC(=N)N)C(=O)O [Compound 8, (D-Tic^7, Leu^8)desArg^9BK] (H-RPPGFS[dTic]L-OH; N-terminus and C-terminus assumed)",
    "readout_type": "Human umbilical vein B2 receptor pA2",
    "observed": "Inactive"
  },
  {
    "compound": "CC[C@H](C)[C@H](NC(=O)[C@@H](Cc1ccc2ccccc2c1)NC(=O)[C@H](CO)NC(=O)[C@H](Cc1ccccc1)NC(=O)CNC(=O)[C@@H]1CCCN1C(=O)[C@@H]1CCCN1C(=O)[C@H](CCCNC(=N)N)NC(=O)[C@H](CCCCN)NC(C)=O)C(=O)O [Compound 19, AcLys(D-βNal^7, Ile^8)desArg^9BK] (Ac-KRPPGFS[d2Nal]I-OH; C-terminus assumed)",
    "readout_type": "Human umbilical vein B2 receptor pA2",
    "observed": "Inactive"
  }
]

Would you kindly look at the next entry?
Data point: N=C(N)NCCC[C@@H](N)C(=O)N[C@@H](CCCNC(=N)N)C(=O)N1CCC[C@H]1C(=O)N1C[C@H](O)C[C@H]1C(=O)NCC(=O)N[C@@H](Cc1cccs1)C(=O)N[C@@H](CO)C(=O)N1Cc2ccccc2C[C@@H]1C(=O)N1[C@H](C(=O)O)C[C@@H]2CCCC[C@@H]21 [Compound 31, reference compound] (H-[dR]RP[Hyp]G[2Thi]S[dTic][Oic]-OH; N-terminus and C-terminus assumed) ; Human umbilical vein B2 receptor pA2 = Inactive
